Tested on: Escherichia coli TOP10
Measurement Description: shrunken log2 fold change of peptide-encoding DNA abundance (4.5 h post-induction vs induction); higher = less antimicrobial activity (less host growth inhibition)
Test Parameters: time post-induction: 4.5 h; library: site-saturation at positions 5, 18, 19, 20
Quantity: shrunken log2 fold change
Reply with just the number.

{"columns": ["Residue Codes", "Target System", "shrunken log2 fold change"],
 "data": [
  ["RRIRDRPPRLPRPRPRPAGIPRP", "Escherichia coli TOP10", -0.00461],
  ["RRIRHRPPRLPRPRPRPFHYPRP", "Escherichia coli TOP10", -0.0791],
  ["RRIRMRPPRLPRPRPRPVEAPRP", "Escherichia coli TOP10", 0.396],
  ["RRIRNRPPRLPRPRPRPNVFPRP", "Escherichia coli TOP10", -0.43],
  ["RRIRNRPPRLPRPRPRPYAAPRP", "Escherichia coli TOP10", -0.4],
  ["RRIRCRPPRLPRPRPRPSYIPRP", "Escherichia coli TOP10", -0.675],
  ["RRIRHRPPRLPRPRPRPVMQPRP", "Escherichia coli TOP10", -0.01],
  ["RRIRPRPPRLPRPRPRPYMSPRP", "Escherichia coli TOP10", -0.636]
]}

Request: Recorded shrunken log2 fold change for "RRIRYRPPRLPRPRPRPHWMPRP" , please?
Result: -0.233

Request: Name the reported shrunken log2 fold change value associated with the sequence "RRIRIRPPRLPRPRPRPYCWPRP"
Result: -0.185

Request: Item "RRIRFRPPRLPRPRPRPWVAPRP" has what recorded shrunken log2 fold change?
Result: -0.139

Request: Quick check: shrunken log2 fold change of "RRIRGRPPRLPRPRPRPLGQPRP" ?
Result: 0.756

Request: Endpoint output: shrunken log2 fold change of "RRIRFRPPRLPRPRPRPGYIPRP" . Value?
Result: -0.0716

Request: Dear colleague, I am looking for the recorded shrunken log2 fold change of the following sequence: "RRIRERPPRLPRPRPRPWPHPRP"
Result: -0.0947

Request: Name the recorded shrunken log2 fold change for "RRIRKRPPRLPRPRPRPPGVPRP" .
Result: 0.548

###

System: Escherichia coli TOP10
Measurement Description: shrunken log2 fold change of peptide-encoding DNA abundance (4.5 h post-induction vs induction); higher = less antimicrobial activity (less host growth inhibition)
Test Parameters: time post-induction: 4.5 h; library: site-saturation at positions 5, 18, 19, 20
Listing of recorded shrunken log2 fold change by entry.
Form rule: numeric answer, no unit written next to it.

{"columns": ["Residue Codes", "shrunken log2 fold change"],
 "data": [
  ["RRIRHRPPRLPRPRPRPYKFPRP", -0.0481],
  ["RRIRERPPRLPRPRPRPWHYPRP", -0.067],
  ["RRIRTRPPRLPRPRPRPHPPPRP", 0.271]
]}

Request: Could you share which shrunken log2 fold change value was measured for "RRIRLRPPRLPRPRPRPSCMPRP" ?
Result: -0.362

Request: Can you look up the measured shrunken log2 fold change of "RRIRARPPRLPRPRPRPQRPPRP" for me?
Result: 0.517

Request: Report shrunken log2 fold change for "RRIRQRPPRLPRPRPRPDKKPRP" please.
Result: -0.0704

Request: So what does the record say about shrunken log2 fold change for "RRIRSRPPRLPRPRPRPQAWPRP" ?
Result: -0.0983

Request: Fill in: shrunken log2 fold change of "RRIRDRPPRLPRPRPRPYTSPRP" is ___
Result: 0.0448

Request: Which measured shrunken log2 fold change value corresponds to "RRIRCRPPRLPRPRPRPQNAPRP" ?
Result: -0.372

Request: Consider the sequence shown here: "RRIRMRPPRLPRPRPRPTRKPRP" What is its recorded shrunken log2 fold change?
Result: 1.6

Request: Returns the measured shrunken log2 fold change for the input sequence. Input: "RRIRVRPPRLPRPRPRPSGMPRP"
Result: 0.489

Request: Name the reported shrunken log2 fold change value associated with the sequence "RRIRRRPPRLPRPRPRPHFPPRP"
Result: 0.553

Request: Consider the sequence "RRIRERPPRLPRPRPRPNVNPRP" and give its measured shrunken log2 fold change.
Result: -0.34

###

System: Escherichia coli TOP10
Measurement Description: shrunken log2 fold change of peptide-encoding DNA abundance (4.5 h post-induction vs induction); higher = less antimicrobial activity (less host growth inhibition)
Test Parameters: time post-induction: 4.5 h; library: site-saturation at positions 5, 18, 19, 20
Let's look at some sequences and their measured shrunken log2 fold change.
Answer using only a numeral; do not append any unit.

Request: Query (sequence): "RRIRVRPPRLPRPRPRPAIRPRP" ; field requested: shrunken log2 fold change
Result: 0.0362

Request: I'd like to know its shrunken log2 fold change. The sequence in question is "RRIRRRPPRLPRPRPRPHFAPRP"
Result: 0.382

###

Reported shrunken log2 fold change is given for each of the following sequences.
Tested on: Escherichia coli TOP10
Measurement Description: shrunken log2 fold change of peptide-encoding DNA abundance (4.5 h post-induction vs induction); higher = less antimicrobial activity (less host growth inhibition)
Test Parameters: time post-induction: 4.5 h; library: site-saturation at positions 5, 18, 19, 20
# print the numeric value only

{"columns": ["Residue Codes", "shrunken log2 fold change"],
 "data": [
  ["RRIRWRPPRLPRPRPRPRSAPRP", 0.294]
]}

Request: Write down the reported shrunken log2 fold change of "RRIRPRPPRLPRPRPRPMQQPRP" , test system: Escherichia coli TOP10.
Result: -0.0524

Request: Recall the recorded shrunken log2 fold change for "RRIRDRPPRLPRPRPRPYLQPRP" with Escherichia coli TOP10 and state it.
Result: -0.0926

Request: Form: Entry = "RRIRERPPRLPRPRPRPEIEPRP" | System = Escherichia coli TOP10 | shrunken log2 fold change = ____
Result: 0.0286

Request: Requested read-out shrunken log2 fold change, target or system Escherichia coli TOP10, entry "RRIRCRPPRLPRPRPRPDLCPRP"
Result: -0.047

Request: Param readout= shrunken log2 fold change; system= Escherichia coli TOP10; entry= "RRIRRRPPRLPRPRPRPPCNPRP" ; returns value.
Result: 0.36

Request: Observed shrunken log2 fold change on Escherichia coli TOP10 for "RRIRCRPPRLPRPRPRPRKFPRP" , please.
Result: -0.00353

Request: API: value(readout= shrunken log2 fold change, system= Escherichia coli TOP10, query= "RRIRIRPPRLPRPRPRPWWCPRP" )
Result: -0.196

Request: Give the reported shrunken log2 fold change for "RRIRGRPPRLPRPRPRPSNMPRP" (system: Escherichia coli TOP10).
Result: -0.113

Request: Give Escherichia coli TOP10 shrunken log2 fold change for "RRIRFRPPRLPRPRPRPECRPRP"
Result: -0.0408

Request: Fill in the recorded shrunken log2 fold change for this sequence, with Escherichia coli TOP10 as test system: "RRIRPRPPRLPRPRPRPNVLPRP"
Result: -0.312

Request: Lab request: please report shrunken log2 fold change under test system Escherichia coli TOP10 for "RRIRDRPPRLPRPRPRPEDEPRP"
Result: 1.76

Request: Form field: shrunken log2 fold change recorded for "RRIRSRPPRLPRPRPRPYSNPRP" with Escherichia coli TOP10 (enter value)
Result: -0.549

Request: # query: shrunken log2 fold change | item "RRIRHRPPRLPRPRPRPGIYPRP" | system: Escherichia coli TOP10
Result: 0.0151

Request: Item "RRIRRRPPRLPRPRPRPWMYPRP" with Escherichia coli TOP10 - shrunken log2 fold change?
Result: -0.305

Request: Notebook: pull reported shrunken log2 fold change for Escherichia coli TOP10, entry "RRIRCRPPRLPRPRPRPQQHPRP"
Result: -0.113

Request: Recall the recorded shrunken log2 fold change for "RRIRIRPPRLPRPRPRPLIWPRP" with Escherichia coli TOP10 and state it.
Result: -0.236

Request: Request - read-out shrunken log2 fold change | tested on Escherichia coli TOP10 | sequence "RRIRIRPPRLPRPRPRPNHFPRP"
Result: -0.694

Request: // lookup shrunken log2 fold change | system=Escherichia coli TOP10 | key= "RRIRVRPPRLPRPRPRPRSYPRP"
Result: -0.0987

Request: Record "RRIRERPPRLPRPRPRPRAIPRP" : what is its shrunken log2 fold change with Escherichia coli TOP10?
Result: 0.0706

Request: Lab note: need shrunken log2 fold change for "RRIRWRPPRLPRPRPRPATPPRP" on Escherichia coli TOP10, anyone have it?
Result: 0.755

Request: Item "RRIRWRPPRLPRPRPRPFDMPRP" with Escherichia coli TOP10 - shrunken log2 fold change?
Result: -0.105

###

# shrunken log2 fold change annotations
System: Escherichia coli TOP10;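 note: peptides expressed intracellularly from a pBAD plasmid library in pooled LB shake-flask culture, induced with 0.3% L-arabinose, DNA abundance read by NGS, three biological replicates, DESeq2 with apeglm shrinkage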
Measurement Description: shrunken log2 fold change of peptide-encoding DNA abundance (4.5 h post-induction vs induction); higher = less antimicrobial activity (less host growth inhibition)
Test Parameters: time post-induction: 4.5 h; library: site-saturation at positions 5, 18, 19, 20

{"columns": ["Residue Codes", "Quantity", "Measured Value"],
 "data": [
  ["RRIRPRPPRLPRPRPRPDVNPRP", "shrunken log2 fold change", -0.233],
  ["RRIRKRPPRLPRPRPRPYTPPRP", "shrunken log2 fold change", -0.344]
]}

Now for a further sequence.
Request: Suppose we examine the sequence "RRIRARPPRLPRPRPRPSMVPRP" ; what shrunken log2 fold change value has been reported?
Result: -0.263
